- assay_target: human recombinant CTSC (Homo sapiens (Human), UniProt P53634)
- Sequence (P53634 25-134): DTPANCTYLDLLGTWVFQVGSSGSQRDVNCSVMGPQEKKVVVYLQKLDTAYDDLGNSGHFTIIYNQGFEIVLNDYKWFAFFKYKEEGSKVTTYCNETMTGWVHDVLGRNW
- Sequence (P53634 231-394): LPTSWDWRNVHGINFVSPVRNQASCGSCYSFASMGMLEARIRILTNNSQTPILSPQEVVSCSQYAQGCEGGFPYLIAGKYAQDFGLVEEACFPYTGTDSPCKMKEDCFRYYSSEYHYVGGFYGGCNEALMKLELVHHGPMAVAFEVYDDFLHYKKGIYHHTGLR
- Sequence (P53634 395-463): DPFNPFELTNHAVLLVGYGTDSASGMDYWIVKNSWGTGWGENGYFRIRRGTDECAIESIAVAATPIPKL
- experiment_notes: CTSC inhibition assay (in vitro), fluorescent substrate GF-AFC
- Format: biochemical
- conditions: 30 μmol/L GF-AFC, pH 5.0, 25° C.
Consider the cut-off 2 nM. If the recorded IC50 is strictly smaller, the label is TRUE; if not, the label is FALSE.

A record lists O=C([C@@H]1C[C@@H](O)C2(CCC2)CN1)N1CCC(c2noc(C3CC(F)(F)C3)n2)(c2cccs2)CC1 . Is its IC50 below 2 nM?
TRUE

# TODO verify IC50 < 2 nM strictly for this compound: O=C([C@@H]1C[C@@H](O)C2(CCC2)CN1)N1CCC(C(=O)N2CCOC3(CC3)C2)(C(F)(F)F)CC1
FALSE

Lab note: IC50 threshold 2 nM. Does this compound come in strictly under it? O=C([C@@H]1C[C@@H](O)C2(CCC2)CN1)N1CCC(c2nnn(C3CCC(F)(F)CC3)n2)CC1
TRUE

Strictly below 2 nM in IC50? O=C([C@@H]1C[C@@H](O)C2(CCC2)CN1)N1CCC(c2nc(C3CCC(F)(F)CC3)no2)(C(F)(F)F)CC1
TRUE

Does the reported IC50 of CC(C)C1(c2noc(C3CCC(F)(F)CC3)n2)CCN(C(=O)[C@@H]2C[C@H](S(C)(=O)=O)CN2)CC1 stay below 2 nM?
FALSE

Hello, is IC50 of the following compound strictly smaller than 2 nM? CC1(C)CN(C(=O)c2nc(C3(C(F)(F)F)CCN(C(=O)[C@@H]4C[C@@H](O)C5(CCC5)CN4)CC3)no2)C1
FALSE

Take the compound CN(CC1CCC(F)(F)CC1)C(=O)C1(C(F)(F)F)CCN(C(=O)[C@@H]2C[C@@H](O)C3(CCC3)CN2)CC1 and say whether its IC50 is less than 2 nM.
TRUE

Strictly below 2 nM in IC50? O=C([C@@H]1C[C@@H](O)C2(CCC2)CN1)N1CCC(c2nnn(-c3ccc(F)cc3)n2)CC1
TRUE

Determine if O=C([C@@H]1C[C@@H](O)C2(CCC2)CN1)N1CCC(c2cnc(N3CCC(F)(F)CC3)s2)CC1 shows IC50 strictly lower than 2 nM.
FALSE

For this compound, is IC50 lower than 2 nM? O=C([C@@H]1C[C@@H](O)C2(CCC2)CN1)N1CCC(c2noc(C3CCCO3)n2)(C(F)(F)F)CC1 (stereo partly shown)
FALSE
